Please provide measured inhibition at 1 µM for the entries that follow.
Target: recombinant human 17β-HSD1 (Homo sapiens, UniProt P14061)
Construct: made in house; host or cells: Sf9 insect cells (baculovirus, Bac to Bac Expression System)
Sequence (P14061 whole entry): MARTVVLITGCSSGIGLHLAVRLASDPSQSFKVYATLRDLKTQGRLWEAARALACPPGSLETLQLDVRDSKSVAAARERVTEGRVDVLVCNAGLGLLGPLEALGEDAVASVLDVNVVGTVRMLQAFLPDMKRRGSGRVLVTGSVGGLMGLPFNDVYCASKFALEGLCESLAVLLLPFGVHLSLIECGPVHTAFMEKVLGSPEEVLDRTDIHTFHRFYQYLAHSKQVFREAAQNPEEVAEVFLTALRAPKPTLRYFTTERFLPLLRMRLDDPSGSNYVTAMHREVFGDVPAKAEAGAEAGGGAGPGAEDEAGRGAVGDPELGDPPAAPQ
Assay: Recombinant 17β-HSD1 assay (HPLC, 3H-estrone conversion)
Type: biochemical
Settings: 0.5 h; 1 μm compound; 30 nM estrone, 1 mM NADPH, 30 min RT; read-out: Inhibition of rec. 17β-HSD1
Procedure: 17β-HSD1 or 17β-HSD2 purification: Recombinant 17β-HSD1 and 17β-HSD2 baculoviruses were generated by the “Bac to Bac Expression System” (Invitrogen). Recombinant 17β-HSD1 or 17β-HSD2 bacmids were transfected to Sf9 insect cells using “Cellfectin Reagent” (Invitrogen). 60 h later cells were harvested; the fractions including 17β-HSD1 or 17β-HSD2 were isolated as described by Puranen et al. (1994). […] [formula] Percent inhibition was calculated as follows: % inhibition=100−% conversion
Show the value, then the unit it is measured in.

[
  {
    "RECORD_SMILES": "C[C@]12CC[C@@H]3c4ccc(B(O)O)cc4CC[C@H]3[C@@H]1[C@@H](CCCC(=O)NCc1ccc3c(c1)OCO3)CC2(F)F",
    "inhibition at 1 µM": "57%"
  }
]

Below is a list of molecules. For each, state its recorded inhibition at 1 µM.
1. C[C@]12CC[C@@H]3c4ccc(Nc5cnc6ccccc6c5)cc4CC[C@H]3[C@@H]1[C@@H](CCCC(=O)N1CCOCC1)CC2=O
2. C[C@]12CC[C@@H]3c4ccc(B(O)O)cc4CC[C@H]3[C@@H]1[C@H](CCC(=O)NC1CCCCC1)CC2(F)F
3. C[C@]12CC[C@@H]3c4ccc(B(O)O)cc4CC[C@H]3[C@@H]1[C@@H](CCCC(=O)NCc1ccccc1)CC2(F)F
4. COc1ccc(CCN(C)C(=O)CCC[C@H]2CC(F)(F)[C@@]3(C)CC[C@@H]4c5ccc(B(O)O)cc5CC[C@H]4[C@H]23)cc1OC

50%
84%
58%
62%

Hey, can you go through the list below and give me inhibition at 1 µM for every item?
1. Cc1cccc2c(CCNC(=O)CC[C@@H]3CC(F)(F)[C@@]4(C)CC[C@@H]5c6ccc(B(O)O)cc6CC[C@H]5[C@H]34)c[nH]c12
2. C[C@]12CC[C@@H]3c4ccc(Nc5ccc6c(c5)S(=O)(=O)C=C6)cc4CC[C@H]3[C@@H]1[C@@H](CCCC(=O)N1CCOCC1)CC2=O
3. C[C@]12CC[C@@H]3c4ccc(B(O)O)cc4CC[C@H]3[C@@H]1[C@@H](CCCC(=O)NCc1ccc3c(c1)OCO3)CC2=O
4. C[C@]12CC[C@@H]3c4ccc(B(O)O)cc4CC[C@H]3[C@@H]1[C@H](CCC(=O)NCc1ccccc1)CC2(F)F
5. Cc1cnc(NC(=O)CC[C@@H]2CC(=O)[C@@]3(C)CC[C@@H]4c5ccc(C(N)=O)cc5CC[C@H]4[C@H]23)s1

["66%", "69%", "43%", "66%", "74%"]

----------
Would you mind telling me the reported inhibition at 0.1 µM of each entry?
Target: recombinant human 17β-HSD2 (Homo sapiens, UniProt P37059)
Construct: made in house; host or cells: Sf9 insect cells (baculovirus, Bac to Bac Expression System)
Sequence (P37059 whole entry): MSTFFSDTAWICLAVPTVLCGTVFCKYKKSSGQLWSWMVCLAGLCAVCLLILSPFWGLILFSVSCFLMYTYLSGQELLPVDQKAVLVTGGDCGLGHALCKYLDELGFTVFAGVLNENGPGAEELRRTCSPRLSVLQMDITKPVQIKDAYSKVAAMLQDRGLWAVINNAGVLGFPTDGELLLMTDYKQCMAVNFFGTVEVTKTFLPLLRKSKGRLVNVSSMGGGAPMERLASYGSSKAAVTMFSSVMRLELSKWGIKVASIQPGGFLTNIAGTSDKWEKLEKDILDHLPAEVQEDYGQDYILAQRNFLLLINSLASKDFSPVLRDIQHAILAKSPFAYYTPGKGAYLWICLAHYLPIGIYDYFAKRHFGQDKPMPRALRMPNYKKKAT
Test: Recombinant 17β-HSD2 assay (HPLC, 3H-estradiol conversion)
Type: biochemical
Conditions: 100 nM compound; 50 nM estradiol, 1 mM β-NAD; read-out: Inhibition of rec. 17β-HSD2
One number for each entry, in %.

Here are 5 compounds together with their reported answers.
[
  {
    "RECORD_SMILES": "Cc1cccc2c(CCNC(=O)CC[C@@H]3CC(=O)[C@@]4(C)CC[C@@H]5c6ccc(B(O)O)cc6CC[C@H]5[C@H]34)c[nH]c12",
    "inhibition at 0.1 µM (%)": 1.3
  },
  {
    "RECORD_SMILES": "C[C@]12CC[C@@H]3c4ccc(B(O)O)cc4CC[C@H]3[C@@H]1[C@H](CCC(=O)NCc1ccc(F)cc1F)CC2(F)F",
    "inhibition at 0.1 µM (%)": 5.8
  },
  {
    "RECORD_SMILES": "CCN(CC)C(=O)CCC[C@H]1CC(F)(F)[C@@]2(C)CC[C@@H]3c4ccc(B(O)O)cc4CC[C@H]3[C@H]12",
    "inhibition at 0.1 µM (%)": 7.7
  },
  {
    "RECORD_SMILES": "Cc1cnc(NC(=O)CC[C@@H]2CC(F)(F)[C@@]3(C)CC[C@@H]4c5ccc(B(O)O)cc5CC[C@H]4[C@H]23)s1",
    "inhibition at 0.1 µM (%)": 6.8
  },
  {
    "RECORD_SMILES": "C[C@]12CC[C@@H]3c4ccc(B(O)O)cc4CC[C@H]3[C@@H]1[C@@H](CCCC(=O)NCc1ccc(O)c(O)c1)CC2=O",
    "inhibition at 0.1 µM (%)": -5
  }
]

Consider the record given below.
For C[C@]12CC[C@@H]3c4ccc(B(O)O)cc4CC[C@H]3[C@@H]1[C@@H](CCCC(=O)NC1CCCCC1)CC2=O the compound record lists inhibition at 0.1 µM as -5.4

----------
Target: 17β-HSD3 enzyme (Homo sapiens, UniProt P37058)
Construct: expressed in transfected cells; host or cells: MCF-7 cell lines stably expressing 17β-HSD3
Sequence (P37058 whole entry): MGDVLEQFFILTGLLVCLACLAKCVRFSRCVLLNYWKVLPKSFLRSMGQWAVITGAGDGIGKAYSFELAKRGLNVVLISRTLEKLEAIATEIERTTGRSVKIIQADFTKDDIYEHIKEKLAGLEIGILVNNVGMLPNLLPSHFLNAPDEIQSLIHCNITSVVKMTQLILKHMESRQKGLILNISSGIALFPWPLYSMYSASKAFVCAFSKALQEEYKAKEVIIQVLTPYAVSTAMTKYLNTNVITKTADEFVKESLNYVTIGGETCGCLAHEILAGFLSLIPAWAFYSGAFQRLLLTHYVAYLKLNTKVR
Experiment: Inhibition of 17β-HSD type 3 enzyme in MCF-7 cells stably expressing 17β-HSD3 (HPLC)
Format: cell-based
Conditions: MCF7; 10 μM compound; MCF-7 cells expressing 17β-HSD3, 2 nM androstenedione
VALUE_KIND: inhibition at 10 µM (%)
Give bare numbers, in %.

[
  {
    "RECORD_SMILES": "C[C@]12CC[C@@H]3c4ccc(B(O)O)cc4CC[C@H]3[C@@H]1[C@@H](CCCC(=O)NC1CCCCC1)CC2(F)F",
    "inhibition at 10 µM / %": 63
  },
  {
    "RECORD_SMILES": "Cc1cnc(NC(=O)CC[C@@H]2CC(F)(F)[C@@]3(C)CC[C@@H]4c5ccc(C(N)=O)cc5CC[C@H]4[C@H]23)s1",
    "inhibition at 10 µM / %": 46
  },
  {
    "RECORD_SMILES": "C[C@]12CC[C@@H]3c4ccc(B(O)O)cc4CC[C@H]3[C@@H]1[C@@H](CCCC(=O)N1CCCCC1)CC2(F)F",
    "inhibition at 10 µM / %": 78
  },
  {
    "RECORD_SMILES": "C[C@]12CC[C@@H]3c4ccc(B(O)O)cc4CC[C@H]3[C@@H]1[C@@H](CCCC(=O)Nc1ccc3c(c1)OCO3)CC2=O",
    "inhibition at 10 µM / %": 22
  }
]

Batch lookup, inhibition at 10 µM per entry.
1. CCN(CC)C(=O)CC[C@@H]1CC(F)(F)[C@@]2(C)CC[C@@H]3c4ccc(B(O)O)cc4CC[C@H]3[C@H]12
2. COc1ccc(CCN(C)C(=O)CC[C@@H]2CC(F)(F)[C@@]3(C)CC[C@@H]4c5ccc(B(O)O)cc5CC[C@H]4[C@H]23)cc1OC
3. C[C@]12CC[C@@H]3c4ccc(B(O)O)cc4CC[C@H]3[C@@H]1[C@@H](CCCC(=O)NC1CCCCC1)CC2=O

1: 60; 2: 71; 3: 45

For the 3 compounds below, give their inhibition at 10 µM values.
1. CCN(CC)C(=O)CCC[C@H]1CC(F)(F)[C@@]2(C)CC[C@@H]3c4ccc(B(O)O)cc4CC[C@H]3[C@H]12
2. Cc1cccc2c(CCNC(=O)CC[C@@H]3CC(F)(F)[C@@]4(C)CC[C@@H]5c6ccc(B(O)O)cc6CC[C@H]5[C@H]34)c[nH]c12
3. C[C@]12CC[C@@H]3c4ccc(NCc5ccccc5)cc4CC[C@H]3[C@@H]1[C@@H](CCCC(=O)N1CCOCC1)CC2=O

[89, 84, 48]

Take each entry in turn and give its inhibition at 10 µM.
1. C[C@]12CC[C@@H]3c4ccc(Nc5ccc6c(c5)S(=O)(=O)C=C6)cc4CC[C@H]3[C@@H]1[C@@H](CCCC(=O)N1CCOCC1)CC2=O
2. C[C@]12CC[C@@H]3c4ccc(B(O)O)cc4CC[C@H]3[C@@H]1[C@@H](CCCC(=O)N1CCCCC1)CC2=O
3. C[C@]12CC[C@@H]3c4ccc(B(O)O)cc4CC[C@H]3[C@@H]1[C@@H](CCCC(=O)NCc1cccnc1)CC2(F)F
4. C[C@]12CC[C@@H]3c4ccc(B(O)O)cc4CC[C@H]3[C@@H]1[C@H](CCC(=O)NCc1ccc3c(c1)OCO3)CC2(F)F
5. C[C@]12CC[C@@H]3c4ccc(B(O)O)cc4CC[C@H]3[C@@H]1[C@H](CCC(=O)NCc1ccccc1)CC2(F)F

1. 52
2. 57
3. 50
4. 67
5. 88
